The entries below come with measured MIC SAP values attached.
System: S. aureus
Assay: MIC, broth dilution in LB-S
Format: cell-based
Conditions: SAP; MBI 29 and MBI21 derivatives
Ends that are not written are not given here.
Your answer is read as µg/mL, so omit the unit and give the number.

A selection of reference data follows.
{"Seq text": "KWKLFKKKGTGAVLTVLTTGLPALIS [MBI29A3]", "MIC SAP, µg/mL": 32}
{"Seq text": "KWKSFIKKLTSVLKKVVTTALPALIS [MBI29A1]", "MIC SAP, µg/mL": 16}

Data request: Please report the recorded MIC SAP for KWKSFIKNLTKVLKKVVTTALPALIS [MBI29A2] .
Data returned: 8
